Values from patent US12428394B2

Below, each of the compounds is paired with its reported inhibition at 0.5 µM value.
tested_system: FLT3 (Homo sapiens)
Construct: purchased Eurofins
experiment_summary: In vitro kinase activity experiment, FLT3
Type: biochemical
experimental_setup: 40 min; inhibition rate of enzyme at 500 nM; measured by Eurofins; read-out: Kinase activity @ 500 nM (%) FLT3
readout_label: inhibition at 0.5 µM (%)

[[record]]
smiles_text = "Cc1cnc(Nc2ccc(NS(=O)(=O)c3ccc(C(F)(F)F)cc3)c(F)c2)nc1-c1cnn(C(C)C)c1"
tested_system = "FLT3 (Homo sapiens)"
assay_value = 94

[[record]]
smiles_text = "C=CC(=O)CCN1CC2(CCN(c3ccc(Nc4ncc(C)c(-c5cnn(C(C)C)c5)n4)cc3F)CC2)C1"
tested_system = "FLT3 (Homo sapiens)"
assay_value = 55

[[record]]
smiles_text = "Cc1cnc(Nc2ccc(N3CCC(CO)CC3)c(F)c2)nc1-c1cnn(C(C)C)c1"
tested_system = "FLT3 (Homo sapiens)"
assay_value = 95

[[record]]
smiles_text = "Cc1cnc(Nc2ccc(CNC(=O)/C=C/C(=O)c3ccccc3)cc2)nc1-c1cnn(C(C)C)c1"
tested_system = "FLT3 (Homo sapiens)"
assay_value = 22


* * *

tested_system: FLT3 (Homo sapiens, UniProt P36888)
Construct: purchased Eurofins
Sequence (P36888 27-993): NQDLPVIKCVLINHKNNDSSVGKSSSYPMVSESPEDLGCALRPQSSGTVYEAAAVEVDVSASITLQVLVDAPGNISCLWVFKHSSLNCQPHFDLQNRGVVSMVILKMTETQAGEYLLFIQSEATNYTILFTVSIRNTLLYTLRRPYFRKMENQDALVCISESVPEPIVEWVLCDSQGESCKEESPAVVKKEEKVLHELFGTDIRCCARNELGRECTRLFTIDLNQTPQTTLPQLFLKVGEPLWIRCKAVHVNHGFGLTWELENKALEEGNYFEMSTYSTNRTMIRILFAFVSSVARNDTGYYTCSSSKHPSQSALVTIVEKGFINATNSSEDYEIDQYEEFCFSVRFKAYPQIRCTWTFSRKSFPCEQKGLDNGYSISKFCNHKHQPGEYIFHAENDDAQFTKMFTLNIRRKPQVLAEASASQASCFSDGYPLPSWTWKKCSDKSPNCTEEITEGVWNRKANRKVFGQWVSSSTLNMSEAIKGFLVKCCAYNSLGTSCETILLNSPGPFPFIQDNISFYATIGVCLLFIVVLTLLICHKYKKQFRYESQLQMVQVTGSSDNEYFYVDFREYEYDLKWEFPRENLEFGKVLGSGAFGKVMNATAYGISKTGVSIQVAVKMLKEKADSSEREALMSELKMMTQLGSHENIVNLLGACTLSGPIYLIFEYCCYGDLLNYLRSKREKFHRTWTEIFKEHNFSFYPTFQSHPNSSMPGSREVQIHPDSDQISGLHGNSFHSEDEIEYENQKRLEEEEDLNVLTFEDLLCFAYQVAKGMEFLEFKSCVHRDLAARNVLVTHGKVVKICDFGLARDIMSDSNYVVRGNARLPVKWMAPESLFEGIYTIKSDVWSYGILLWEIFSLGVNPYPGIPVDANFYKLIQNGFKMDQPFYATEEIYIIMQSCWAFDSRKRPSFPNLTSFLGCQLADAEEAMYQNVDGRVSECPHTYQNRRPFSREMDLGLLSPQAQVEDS
experiment_summary: In vitro kinase activity experiment, FLT3
Type: biochemical
experimental_setup: 40 min; inhibition rate of enzyme at 500 nM; measured by Eurofins; read-out: Kinase activity @ 500 nM (%) FLT3
Below, each of the compounds is paired with its reported inhibition at 0.5 µM value.
readout_label: inhibition at 0.5 µM (%)

[[record]]
compound = "CCCn1cc(-c2nc(Nc3cc(CN4CCN(CC)CC4)c(F)cn3)ncc2F)cn1 [CLJ-5]"
unit_annotation = "%"
assay_value = 34

[[record]]
compound = "Cc1cnc(Nc2ccc(NC(=O)[C@H]3CCCN3CC3CC3)c(F)c2)nc1-c1cnn(C(C)C)c1 [CLJ-96]"
unit_annotation = "%"
assay_value = 56

[[record]]
compound = "CCCCN1CC2(CCN(c3ccc(Nc4ncc(C)c(-c5cnn(C(C)C)c5)n4)cc3F)CC2)C1 [CLJ-73]"
unit_annotation = "%"
assay_value = 97

[[record]]
compound = "CCCN1CC2(CCN(c3ccc(Nc4ncc(C)c(-c5cnn(C(C)C)c5)n4)cc3F)CC2)C1 [CLJ-72]"
unit_annotation = "%"
assay_value = 92

[[record]]
compound = "CCCN(CCN1CCOCC1)C1CCN(c2ccc(Nc3ncc(C)c(-c4cnn(C(C)C)c4)n3)cc2F)CC1 [CLJ-60]"
unit_annotation = "%"
assay_value = 97

[[record]]
compound = "CCCN1CCC(n2cc(-c3nc(Nc4ccc(N5CCN(C)CC5)c(F)c4)ncc3F)cn2)CC1 [CLJ-12]"
unit_annotation = "%"
assay_value = 20

[[record]]
compound = "CC(C)n1cc(-c2nc(Nc3ccc(N4CCN(C)CC4)c(F)c3)ncc2F)cn1 [CLJ-24]"
unit_annotation = "%"
assay_value = 32

[[record]]
compound = "CC(C)N1CCN(Cc2ccc(Nc3ncc(F)c(-c4ccc(CN5CCc6ccccc65)o4)n3)nc2)CC1 [CLJ-3]"
unit_annotation = "%"
assay_value = 29

[[record]]
compound = "CCCCCCN(C)C1CCN(c2ccc(Nc3ncc(C)c(-c4cnn(C(C)C)c4)n3)cc2F)CC1 [CLJ-51]"
unit_annotation = "%"
assay_value = 93

[[record]]
compound = "CC(C)n1cc(-c2nc(Nc3ccc(N4CCN(C)CC4)cc3F)ncc2F)cn1 [CLJ-23]"
unit_annotation = "%"
assay_value = 40

[[record]]
compound = "CCN(CCN1CCOCC1)C1CCN(c2ccc(Nc3ncc(C)c(-c4cnn(C(C)C)c4)n3)cc2F)CC1 [CLJ-59]"
unit_annotation = "%"
assay_value = 97

[[record]]
compound = "CCN1CCN(c2ccc(Nc3ncc(C)c(-c4cnn(C(C)C)c4)n3)cc2F)CC1 [CLJ-30]"
unit_annotation = "%"
assay_value = 96

[[record]]
compound = "CCN1CC2(CCN(c3ccc(Nc4ncc(C)c(-c5cnn(C(C)C)c5)n4)cc3F)CC2)C1 [CLJ-71]"
unit_annotation = "%"
assay_value = 93

[[record]]
compound = "Cc1cnc(Nc2ccc(N3CCC4(CC3)CN(C(C)C)C4)c(F)c2)nc1-c1cnn(C(C)C)c1 [CLJ-75]"
unit_annotation = "%"
assay_value = 99

[[record]]
compound = "Cc1cnc(Nc2ccc(N3CCC(N(C)CCCCO)CC3)c(F)c2)nc1-c1cnn(C(C)C)c1 [CLJ-46]"
unit_annotation = "%"
assay_value = 98

[[record]]
compound = "CC(C)N1CCN(Cc2ccc(Nc3ncc(F)c(-c4ccc(CN5CCCC5)o4)n3)nc2)CC1 [CLJ-1]"
unit_annotation = "%"
assay_value = 33

[[record]]
compound = "CCCCN(C)C1CCN(c2ccc(Nc3ncc(C)c(-c4cnn(C(C)C)c4)n3)cc2F)CC1 [CLJ-50]"
unit_annotation = "%"
assay_value = 90

